# credit: a melting point compilation (Tetko et al.; mined from patent text by program, amines drawn as free bases though some values may be those of a salt)

Catalogue of molecules with associated melting point

Before answering, review these 6 worked examples.
CCOc1cccc(S(=O)(=O)c2ccc(C)nc2Nc2c(C)cc(C)cc2C)c1 = 96 to 97 °C
Nc1cc(C(=O)c2ccc(Oc3ccccc3)c(N)c2)ccc1Oc1ccccc1 = 153 to 154 °C
CC(=O)NNc1c(C)cnc2c(NC(=O)c3c(Cl)cccc3Cl)cccc12 = 249 to 254 °C
C=CC(=O)N[C@@H](C=O)[C@@H](O)[C@H](O)[C@H](O)CO = 124 to 125 °C
O=c1oc(-c2ccccc2Cl)cc(O)c1SCc1ccccc1 = 99 to 101 °C
CC(C)N1C(=O)N(c2ccc(C#N)c(C(F)(F)F)c2)C(=O)C1(CO)CO = 172 to 173 °C

What melting point value was documented for this molecule, CCCc1cc(NCc2ccc3c(c2)OCO3)nc(SCC(N)=NO)n1 ?
145 to 147 °C

What melting point value was documented for this molecule, Cc1cc(-c2cccs2)nc(Nc2ccc(C(C)C)cc2Br)n1 ?
98 to 101 °C

What melting point value was documented for this molecule, Cc1noc(C)c1C(=O)N1CCC2(CC1)CSC1=C(O2)c2ccccc2C(=O)C1=O ?
274 to 275 °C

What melting point value was documented for this molecule, CCNC(=S)n1nc(Oc2c(Cl)cc(C(F)(F)F)cc2Cl)cc1C ?
94 to 96 °C

---

Readout name: melting point

COc1ccc(-c2ccc(C(=O)c3ccccc3)cc2)cc1 = 167 to 168 °C

What melting point value was documented for this compound, CCc1nc(-c2cccc(C(=O)O)c2)c(-c2ccnc(N)c2)s1 ?
273 to 274 °C

What melting point value was documented for this compound, COc1cc2ccn(C(=O)c3ccc(-c4ccccc4)c(C)c3)c2cc1OCCN(C)C ?
152 to 154 °C

What melting point value was documented for this compound, COC(=O)c1sc(Nc2ccc(Cl)cc2)nc1C ?
172 to 173 °C

What melting point value was documented for this compound, O=c1oc(C(Cl)Cl)nc2c(C(F)(F)F)cccc12 ?
179 °C

What melting point value was documented for this compound, CNC(=O)c1ccc(C=CC(=O)NCC(=O)N(C)c2ccc(C)c(CO)c2C)cc1 ?
261 to 263 °C

What melting point value was documented for this compound, CC(O)C1(c2cccc(Cl)c2)CCN(C)CC1 (stereo unspecified) ?
125 to 126 °C

What melting point value was documented for this compound, CCOC(=O)c1c(C)nc(NN=C(C)C)c2nnn(CC)c12 ?
68 to 72 °C

What melting point value was documented for this compound, COC(=O)c1cc(N2CCN([C@H]3CC[C@@H](c4cn(C)c5ccc(C#N)cc54)CC3)CC2)c2ncccc2c1 ?
153 to 155 °C

What melting point value was documented for this compound, COc1cccc(/C=C(/C(=O)O)c2cc(OC)c(OC)c(OC)c2)c1 ?
68 to 70 °C

---

Catalogue of compounds with associated melting point

[N-]=[N+]=NCCOc1ccc(F)c2c1CC(=O)N2 = 147 to 148 °C
COc1cc(-c2ccccc2Cl)c(Cl)cc1C(=O)N1Cc2ccc(C(=O)O)n2Cc2ccccc21 = 209 to 211 °C
CCCC12CCC3C4=C(CCC3C1CCC2=O)CC(OC)=CC4 (stereo unspecified) = 128 to 131 °C
Cn1nnc(-c2cn(C)c3ccccc3c2=O)n1 = 189 to 192 °C
Cc1nc(N2CCN(CC3CC3(F)F)C2=O)sc1C(=O)NCc1cncs1 (stereo unspecified) = 182 to 184 °C

What melting point value was documented for this compound, COC(=O)CNC(C)=S ?
78 to 79 °C

---

Readout name: melting point

CCCCCC(COc1ccc(C(=O)O)cc1)c1ccc2c(c1)C(C)(C)CC(C)(C)O2 (racemic) = 94 to 96 °C
COc1ccc(C(=O)O)c2c1oc1ccccc12 = 280 °C

What melting point value was documented for this molecule, Cn1c(C(F)(F)F)c([N+](=O)[O-])c2ccc(Cl)cc21 ?
157 to 160 °C

What melting point value was documented for this molecule, Nc1nc(NCCNc2ccccc2)nc(-c2cc(Cl)ccc2Cl)n1 ?
139 to 141 °C

What melting point value was documented for this molecule, O=C(O)CN(CC(=O)O)c1cccc(N(CC(=O)O)CC(=O)O)c1 ?
188 °C

What melting point value was documented for this molecule, Nc1nccc(-c2cccc(OCC(O)CN3CCN(c4ccc(Cl)cc4)CC3)c2)n1 (configuration not stated) ?
141 to 142 °C

What melting point value was documented for this molecule, COC(=O)CCCN(C(=O)C(C)N(C(C)=O)c1ccc(OC)cc1)c1ccc(OC)cc1 (configuration not stated) ?
111 to 113 °C

What melting point value was documented for this molecule, CC(=O)COc1cc(-c2ncc(C(F)(F)F)cc2Cl)ccc1C#N ?
146 to 147 °C

What melting point value was documented for this molecule, CCOC(=O)c1cnc2cc(Cl)ccc2c1N=[N+]=[N-] ?
94.5 °C

What melting point value was documented for this molecule, COC[C@@H](NS(=O)(=O)c1ccc2c(Cl)cnc(Cl)c2c1)C(=O)OC(C)(C)C ?
135 to 137 °C

What melting point value was documented for this molecule, COc1ccc2c(n1)C1(CO2)C(=O)N(Cc2ncc(Cl)n2C)c2ccccc21 (configuration not stated) ?
169 to 171 °C

What melting point value was documented for this molecule, CS(=O)(=O)c1cc(CBr)ccc1Br ?
120 to 124 °C

What melting point value was documented for this molecule, COc1cccc(C(=C/C=C/C(=O)NCCCCCCc2cccnc2)c2cccc(OC)c2)c1 ?
66 to 70 °C

What melting point value was documented for this molecule, O=C1C=C(c2ccccc2)C(=Nc2ccccc2)N1 ?
180 to 183 °C

What melting point value was documented for this molecule, CC(C)C(NC(=O)OCc1ccccc1)(C(=O)OCc1ccccc1)C1CO1 (configuration not stated) ?
74 to 76 °C

What melting point value was documented for this molecule, COc1cc(Nc2cc(C(=O)NN)ccn2)cc(C(F)(F)F)c1 ?
229 to 230 °C

What melting point value was documented for this molecule, CC(C)(C)OC(=O)C12CC3CC(C1)CC(C(=O)OC(C)(C)C)(C3)C2 ?
65 to 66 °C

What melting point value was documented for this molecule, CC(CN(C)C)N1c2ccccc2Sc2ccc(C(=S)NCC3CCCCC3)cc21 (racemic) ?
167 °C

What melting point value was documented for this molecule, CCOC(=O)c1ncn2c(-c3cccnc3)ccnc12 ?
184 to 186 °C

What melting point value was documented for this molecule, COc1ccc(Oc2ccccc2)cc1NC(=O)c1ccn2c1CSC2c1cccnc1 (configuration not stated) ?
158 °C

---

Readout name: melting point

O=C1c2ccccc2CC(=NO)c2ccccc21 = 186 °C
N#CCc1ccccc1-c1ccc(C(=O)O)cc1 = 218 to 220 °C
COc1cc(C)nc(NC(=O)NS(=O)(=O)c2cccc3cccnc23)n1 = 181 to 185 °C
CC1(C)OC(=O)Nc2ccc(-c3coc(C=NO)c3)cc21 = 236 to 238 °C

What melting point value was documented for this molecule, CN1CCN(c2nc(C(F)(F)F)cs2)CC1 ?
62 °C

What melting point value was documented for this molecule, Cc1cccc(C(N)=NO)c1C ?
110 to 111 °C

What melting point value was documented for this molecule, O=C1Nc2ccccc2SC1CCCCBr (configuration not stated) ?
100 °C

What melting point value was documented for this molecule, O=C(NCc1ccc(Cl)cc1)c1cn(CCN2CCOCC2)c2ccc(C=CCO)cc2c1=O ?
146 to 148 °C

---

Readout name: melting point

Before answering, review these 10 worked examples.
CC(C)(C)c1ccc(COc2ccc(S(=O)(=O)NC[C@@H](C(=O)NO)N3CCOCC3)cc2)cc1 = 137 °C
CC1CC(=O)c2cc(Cl)cc(Cl)c2O1 (stereo not given) = 98 to 102 °C
CSC(=O)c1c(C(F)F)nc(C(F)(F)F)c(C(=O)SC)c1N = 160 to 161 °C
CCc1ccc(S(C)(=O)=O)c(C(=O)c2ccc(F)cc2)c1 = 145 to 147 °C
O=C1CN2Cc3ccc(OCCCC(=O)N(CCO)CCCCC4CCCCC4)cc3N=C2N1 = 113 to 114 °C
COc1cccc([C@H]2O[C@H](CC(=O)Nc3ccc(OCCCc4ccccc4)c(CCC(=O)O)c3)C(=O)N(CC(C)(C)CO)c3ccc(Cl)cc32)c1OC = 147 to 149 °C
O=C(CCC(=O)Oc1ccc([N+](=O)[O-])cc1)Oc1ccc([N+](=O)[O-])cc1 = 176 to 178 °C
CCOC(=O)C1(O)COc2cc3ccc(=O)[nH]c3cc2C1=O (stereo not given) = > 300 °C
CCN1c2cc(C)c(C)cc2N(C)C(=O)c2cccnc21 = 140 to 144 °C
On1cc(-c2ccccc2)[nH]c1=S = 196 °C

What melting point value was documented for this compound, N=c1[nH]c(=N)c2ncn(C3OC(CO)C(O)C3O)c2c(=N)[nH]1 (stereo not given) ?
> 200 °C

What melting point value was documented for this compound, CN(C)C(=O)N(COCCCl)c1ccc(C(F)(F)F)cc1 ?
39 °C

What melting point value was documented for this compound, COc1c(Cl)cc(C(C)(C)N2CC(C)=C(c3ccccc3)C2=O)cc1Cl ?
136 to 139 °C

What melting point value was documented for this compound, Cc1c(NC(=O)CC(C)(C)C)c(C)c2c(c1-c1cccs1)OCC2c1ccc(C(C)C)cc1 (stereo not given) ?
155 to 156 °C
